The measured values listed here are drawn from patent US20240024520A1.

- Experimental Target: rat serum albumin (rat, UniProt P02770 25-608)
- Sequence (P02770 25-608 limits assumed): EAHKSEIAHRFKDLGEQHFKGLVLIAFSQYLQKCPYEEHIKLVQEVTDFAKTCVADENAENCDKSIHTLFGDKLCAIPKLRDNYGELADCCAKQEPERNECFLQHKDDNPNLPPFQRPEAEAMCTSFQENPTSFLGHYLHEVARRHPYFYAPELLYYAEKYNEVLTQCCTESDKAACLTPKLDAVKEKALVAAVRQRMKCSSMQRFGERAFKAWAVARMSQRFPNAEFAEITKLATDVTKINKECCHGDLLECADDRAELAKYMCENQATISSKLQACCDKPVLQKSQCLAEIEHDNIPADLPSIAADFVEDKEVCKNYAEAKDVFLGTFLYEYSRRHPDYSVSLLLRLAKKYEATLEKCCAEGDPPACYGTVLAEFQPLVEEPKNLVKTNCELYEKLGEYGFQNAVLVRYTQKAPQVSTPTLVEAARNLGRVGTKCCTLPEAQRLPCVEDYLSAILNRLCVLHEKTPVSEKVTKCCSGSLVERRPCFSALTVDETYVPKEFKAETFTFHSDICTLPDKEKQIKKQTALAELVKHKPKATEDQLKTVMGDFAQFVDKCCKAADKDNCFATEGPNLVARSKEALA
- Run Description: monoclonal phage ELISA

Binder | binding result
ultralong CDR-H3 of SEQ ID NO: 507 displayed on M13 phage (other, not shown: poly-histidine, c-myc tag, M13 pIII) TTVHQQTQERCPDNYTDRGGCSIPYSCGDSRCCAYGRNGGYGGVSCSRTYEFYVN | binds
ultralong CDR-H3 of SEQ ID NO: 506 displayed on M13 phage (other, not shown: poly-histidine, c-myc tag, M13 pIII) TTVHQQTQERCPDDYTDRGGCSIPYNCGGSRCCAYGRNGGYGGVSCSRTYEFYVN | binds
ultralong CDR-H3 of SEQ ID NO: 502 displayed on M13 phage (other, not shown: poly-histidine, c-myc tag, M13 pIII) TTVHQQTQERCPDDYTDRGGCSIPYTCGGSRCCAYGRNGGYGGVSCSRTYEFYVN | binds
ultralong CDR-H3 of SEQ ID NO: 503 displayed on M13 phage (other, not shown: poly-histidine, c-myc tag, M13 pIII) TTVHQQTQERCPDDYTDRGGCSIPYNCGGSRCCAYGRNGGYGGISCSRTYEWYVD | binds
